# experimental.system: BCL-XL (Homo sapiens)
# Construct: endogenous in cells; host or cells: MOLT-4
# Sequence (Q07817 whole entry): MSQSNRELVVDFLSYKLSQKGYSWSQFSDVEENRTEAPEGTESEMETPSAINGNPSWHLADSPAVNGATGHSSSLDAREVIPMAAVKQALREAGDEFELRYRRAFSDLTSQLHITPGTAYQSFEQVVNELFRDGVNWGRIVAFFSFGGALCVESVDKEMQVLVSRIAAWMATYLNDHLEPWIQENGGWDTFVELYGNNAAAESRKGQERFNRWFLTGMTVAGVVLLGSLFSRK
# experiment.summary: Bcl-xL ELISA degradation in MOLT-4 cells, 6 h
# Type: cell-based
Give measured Dmax for each item. Keep answers brief.

Sample answers from the record:
C#Cc1ccc([C@H](CO)NC(=O)[C@@H]2C[C@@H](O)CN2C(=O)[C@@H](NC(=O)C2CCN(c3ccc(S(=O)(=O)NC(=O)c4nc(N5CCc6cccc(C(=O)Nc7nc8ccccc8s7)c6C5)ccc4-c4cnn(CC5CCCCC5)c4C)cc3)CC2)C(C)(C)C)cc1 : > 75%
Cc1ncsc1-c1ccc([C@H](C)NC(=O)[C@@H]2C[C@@H](O)CN2C(=O)[C@@H](NC(=O)CCCCN(C)CCCCNC(=O)c2nc(N3CCc4cccc(C(=O)Nc5nc6ccccc6s5)c4C3)ccc2-c2cnn(CC3CCCCC3)c2C)C(C)(C)C)cc1 : < 50%

Value sought for every listed compound: Dmax.
1. Cc1ncsc1-c1ccc([C@H](C)NC(=O)[C@@H]2C[C@@H](O)CN2C(=O)C(c2cc(N3CC(CN4CCC(NC(=O)c5nc(N6CCc7cccc(C(=O)Nc8nc9ccccc9s8)c7C6)ccc5-c5cnn(CC6CCCCC6)c5C)CC4)C3)no2)C(C)C)cc1 (stereo partly shown)
2. Cc1cc([C@H](C(=O)N2C[C@H](O)C[C@H]2C(=O)NCc2ccc(-c3scnc3C)cc2OCCCCCCNC(=O)c2nc(N3CCc4cccc(C(=O)Nc5nc6ccccc6s5)c4C3)ccc2-c2cnn(CC3CCCCC3)c2C)C(C)C)on1

## Result
< 50%
< 50%
